Test system: GRK3;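 further: KINOMEscan kinase panel screen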
Construct: gene ADRBK2
measurement conditions: concentration: 1 μM, replicates: in singlicate; n = 1
Property: %Inh; scope: individual compounds
test readout: %Inh (%)

>>> print(df.to_string())
                                   compound  test_readout  reported_value
0  Cn1cc(-c2ccc3c(c2)CCN3C(=O)Cc2cccc(Cl)c2)c2c(N)ncnc21          %Inh               0
1                  c1ccc(-c2cnc3nccnn23)cc1          %Inh              13
2  Cc1ccc(C)c(NC(=O)NC2CCN(c3ccnc(Nc4ccc(F)cc4)n3)C2)c1 (stereo not drawn)          %Inh              60
3  COCCOCCOc1cc2ncc3c4ccc(C#N)cc4[nH]c3c2cc1OC          %Inh               0
4  Cn1cc(-c2[nH]c3cc(NC(=O)[C@H](N)C4CCCCC4)cc4c3c2C=NNC4=O)cn1          %Inh             100
5  COc1cc2c(cc1OCCN1CCNCC1)ncc1c3ccc(C#N)cc3[nH]c21          %Inh              34
6      CC(C)(C)c1ccc2nccc(Nc3cccc(O)c3)c2c1          %Inh               0
7              Nc1n[nH]c2cnc(-c3ccccc3)cc12          %Inh              42
8  CN(c1ccc(NC(=O)Nc2cc(C(F)(F)F)ccc2F)cc1)c1ccnc(Nc2ccc(S(N)(=O)=O)cc2)n1          %Inh               0
